Biological target: DDA1-DDB1ΔB-DCAF15Δpro triplex with R1R2 of RBM39 (Homo sapiens, UniProt Q14498+Q66K64, Q66K64:DEL276-383)
Assay: TR-FRET, SPLAM-induced ternary complex formation, Eu-anti-His and APC-anti-FLAG
Measure: pEC50
// field semantics: pEC50 = negative decimal log of concentration (mol/L)

Query: State its pEC50: NS(=O)(=O)c1ccc(S(=O)(=O)Nc2cccc3c(Cl)c[nH]c23)cc1 [indisulam]
Result: 8.30
